molecular target: pVHL in complex with elongin C and elongin B (VCB) (human, UniProt P40337 55-213; Q15370 1-118); assay: fluorescence polarisation
Where no end group is shown, it is not given here. [ ]: non-standard residue; d: D form. Hyp = O=C(O)[C@@H]1C[C@@H](O)CN1
measuredParameter: Kd (µM)
Response body: numeric value in µM, unit text excluded.

Task item: Consider the binder TLYYMA[Hyp]EHLNDVNA (also: FITC label, position not given here) [Fluorescein isothiocyanate-labelled RIPK1 peptide T189LYYMA(Hyp)EHLNDVNA203] and give its measured Kd.
Reply: 5.9
